molecular target: INDY (Homo sapiens, UniProt Q86YT5); assay: 14C-citrate uptake in HepG2 cells endogenously expressing INDY (NaCT); format: cell-based; conditions: endogenous INDY
Sequence (Q86YT5 whole entry): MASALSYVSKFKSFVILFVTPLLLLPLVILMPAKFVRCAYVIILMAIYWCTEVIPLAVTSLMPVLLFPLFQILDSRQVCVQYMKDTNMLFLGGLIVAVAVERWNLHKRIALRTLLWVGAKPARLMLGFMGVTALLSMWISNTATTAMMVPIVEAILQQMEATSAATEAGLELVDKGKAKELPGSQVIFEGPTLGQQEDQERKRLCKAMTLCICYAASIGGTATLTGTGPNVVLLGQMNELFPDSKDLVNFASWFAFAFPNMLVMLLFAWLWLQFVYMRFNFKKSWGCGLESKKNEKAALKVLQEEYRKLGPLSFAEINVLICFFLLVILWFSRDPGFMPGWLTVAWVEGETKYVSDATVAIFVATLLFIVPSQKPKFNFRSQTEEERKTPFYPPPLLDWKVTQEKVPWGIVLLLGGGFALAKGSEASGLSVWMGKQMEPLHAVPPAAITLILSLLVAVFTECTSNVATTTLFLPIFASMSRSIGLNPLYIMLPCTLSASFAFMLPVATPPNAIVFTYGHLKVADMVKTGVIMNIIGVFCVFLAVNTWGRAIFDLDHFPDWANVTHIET
endpoint: pIC50
// pIC50 is dimensionless: -log10 of concentration (M)

# count of solved cases: 6
**Q:** Give the reported pIC50 for this compound. CC(C)(C)c1cccc(S(=O)(=O)N2CCC(C(=O)NCc3ccccc3F)CC2)c1
**A:** 6.00

**Q:** Give the reported pIC50 for this compound. O=C(NCc1ccccn1)C1CCN(S(=O)(=O)c2cccc(S(F)(F)(F)(F)F)c2)CC1
**A:** 5.52

**Q:** Give the reported pIC50 for this compound. O=C(NCc1ccccc1F)C1CCN(S(=O)(=O)/C=C/c2ccccc2)CC1
**A:** 5.70

**Q:** Give the reported pIC50 for this compound. O=C(NCc1ccccc1F)C1CCN(S(=O)(=O)c2ccccc2)CC1
**A:** 5.24

**Q:** Give the reported pIC50 for this compound. O=C(NCc1ccccn1)C1CCN(S(=O)(=O)c2cc(Cl)cc(C(F)(F)F)c2)CC1
**A:** 6.30

**Q:** Give the reported pIC50 for this compound. Cc1ccc(S(=O)(=O)N2CCC(C(=O)NCc3ccccc3F)CC2)cc1
**A:** 5.54

Others:
**Q:** Give the reported pIC50 for this compound. O=C(NCc1ccccn1)C1CCN(S(=O)(=O)c2cc(Br)cc(C(F)(F)F)c2)CC1
**A:** 6.40

**Q:** Give the reported pIC50 for this compound. O=C(NCc1ccccn1)C1CCN(S(=O)(=O)c2cc(Cl)cc(C3COC3)c2)CC1
**A:** 5.64

**Q:** Give the reported pIC50 for this compound. Cc1cc(C)cc(S(=O)(=O)N2CCC(C(=O)NCc3ccccn3)CC2)c1
**A:** 6.15

// provenance: patent US20200087258A1
